Target: T1, EsCas13d, nuclease-dead (Eubacterium siraeum, UniProt B0MS50, R295A;H300A;R849A;H854A)
T1 sequence: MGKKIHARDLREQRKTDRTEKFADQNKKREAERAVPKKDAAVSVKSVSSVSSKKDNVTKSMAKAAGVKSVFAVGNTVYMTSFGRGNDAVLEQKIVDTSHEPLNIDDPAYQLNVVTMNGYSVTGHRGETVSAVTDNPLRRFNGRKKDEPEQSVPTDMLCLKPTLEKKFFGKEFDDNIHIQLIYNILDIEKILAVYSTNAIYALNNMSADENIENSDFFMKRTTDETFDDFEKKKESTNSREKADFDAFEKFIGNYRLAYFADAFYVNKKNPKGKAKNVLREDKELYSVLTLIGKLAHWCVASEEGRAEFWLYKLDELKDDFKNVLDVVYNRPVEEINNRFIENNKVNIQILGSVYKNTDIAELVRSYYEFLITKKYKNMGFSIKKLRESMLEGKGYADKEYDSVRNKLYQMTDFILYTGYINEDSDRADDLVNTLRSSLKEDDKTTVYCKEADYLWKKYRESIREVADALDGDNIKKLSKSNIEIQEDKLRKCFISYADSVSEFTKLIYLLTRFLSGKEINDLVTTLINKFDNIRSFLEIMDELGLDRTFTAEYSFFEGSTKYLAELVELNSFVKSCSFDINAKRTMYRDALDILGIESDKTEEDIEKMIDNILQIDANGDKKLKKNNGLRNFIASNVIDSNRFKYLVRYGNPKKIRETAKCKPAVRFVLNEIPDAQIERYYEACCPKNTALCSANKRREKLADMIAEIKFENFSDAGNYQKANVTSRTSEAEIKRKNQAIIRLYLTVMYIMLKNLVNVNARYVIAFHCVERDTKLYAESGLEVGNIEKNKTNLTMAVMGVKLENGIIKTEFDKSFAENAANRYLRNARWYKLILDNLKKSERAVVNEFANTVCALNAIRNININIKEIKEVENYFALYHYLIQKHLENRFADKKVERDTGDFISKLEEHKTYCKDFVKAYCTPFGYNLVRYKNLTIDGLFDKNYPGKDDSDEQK
Experiment: crRNA (strand 1, pre-loaded); Mg2+; 40 mM Tris-HCl pH 7.5, 150 mM NaCl, 6 mM MgCl2, 1 mM DTT, 0.1% Tween-20, 0.2 mg/ml BSA; 25 C; 10 min per concentration, then washed
Conditions: tags: His6-TwinStrep-SUMO cleaved; N-terminal SNAP kept (SNAP-Surface 488); label: 3' end held by stalled T7 RNA polymerase
property measured: pKd
Kindly note that pKd refers to -log10 of the concentration in mol/L and answer with the value alone.

Consider the worked cases shown below.
{"binder": "target 1 MT 5'PFS CUA 3'PFS CUC (mixed) RNA 1: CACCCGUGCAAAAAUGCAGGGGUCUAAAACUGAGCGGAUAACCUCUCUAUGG RNA 2: GGGAAUGGAUCCACAUCUACGAAUUCCUACCAUAGAGAGGUUAUCCGCUCACUCAGAUCGGAAGAGCACACGU", "pKd": 8.15}
{"binder": "target 2 MT 5'PFS AUA 3'PFS CAG (mixed) RNA 1: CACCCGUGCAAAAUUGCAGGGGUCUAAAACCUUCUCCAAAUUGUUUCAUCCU RNA 2: GGGAAUGGAUCCACAUCUACGAAUUCAUAAGGAUGAAACAAUUUGGAGAAGCAGAGAUCGGAAGAGCACACGU", "pKd": 8.08}
{"binder": "target 1 insG 3' of 22,insC 3' of 15 (mixed) RNA 1: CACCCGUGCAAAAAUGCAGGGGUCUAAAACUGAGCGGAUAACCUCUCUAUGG RNA 2: GGGAAUGGAUCCACAUCUACGAAUUCGUACGCAUAGAGCAGGUUAUCCGCUCACCGAGAUCGGAAGAGCACACGU", "pKd": 7.32}
{"binder": "target 1 MT 5'PFS UUG 3'PFS AAU (mixed) RNA 1: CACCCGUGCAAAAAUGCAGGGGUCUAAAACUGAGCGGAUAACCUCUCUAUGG RNA 2: GGGAAUGGAUCCACAUCUACGAAUUCUUGCCAUAGAGAGGUUAUCCGCUCAAAUAGAUCGGAAGAGCACACGU", "pKd": 7.65}
{"binder": "target 1 MT 5'PFS ACG 3'PFS AUA (mixed) RNA 1: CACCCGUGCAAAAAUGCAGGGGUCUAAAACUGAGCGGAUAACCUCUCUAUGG RNA 2: GGGAAUGGAUCCACAUCUACGAAUUCACGCCAUAGAGAGGUUAUCCGCUCAAUAAGAUCGGAAGAGCACACGU", "pKd": 7.78}

Problem: Requested field: pKd. Item: target 1 MT 5'PFS UAA 3'PFS UUU (mixed) RNA 1: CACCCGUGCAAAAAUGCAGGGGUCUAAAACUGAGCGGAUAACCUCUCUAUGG RNA 2: GGGAAUGGAUCCACAUCUACGAAUUCUAACCAUAGAGAGGUUAUCCGCUCAUUUAGAUCGGAAGAGCACACGU
Solution: 7.31

Problem: Requested field: pKd. Item: target 1 insG 3' of 10,insC 3' of 8 (mixed) RNA 1: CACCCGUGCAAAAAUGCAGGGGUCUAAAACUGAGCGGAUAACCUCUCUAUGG RNA 2: GGGAAUGGAUCCACAUCUACGAAUUCGUACCAUAGAGAGGUUGAUCCCGCUCACCGAGAUCGGAAGAGCACACGU
Solution: 7.56

Problem: Requested field: pKd. Item: target 1 A14C,G15A (mixed) RNA 1: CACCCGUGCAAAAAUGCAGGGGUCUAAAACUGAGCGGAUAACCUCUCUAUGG RNA 2: GGGAAUGGAUCCACAUCUACGAAUUCGUACCAUAGAACGGUUAUCCGCUCACCGAGAUCGGAAGAGCACACGU
Solution: 7.49

Problem: Requested field: pKd. Item: target 3 insG 3' of 7,insC 3' of 7 (mixed) RNA 1: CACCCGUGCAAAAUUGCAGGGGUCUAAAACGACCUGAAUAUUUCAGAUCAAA RNA 2: GGGAAUGGAUCCACAUCUACGAAUUCGUUUUUGAUCUGAAAUAUUGCCAGGUCUGCAGAUCGGAAGAGCACACGU
Solution: 7.35

Problem: Requested field: pKd. Item: target 1 U3A,G12C (mixed) RNA 1: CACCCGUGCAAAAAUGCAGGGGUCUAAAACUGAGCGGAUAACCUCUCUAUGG RNA 2: GGGAAUGGAUCCACAUCUACGAAUUCGUACCAUAGAGAGCUUAUCCGCACACCGAGAUCGGAAGAGCACACGU
Solution: 8.07

Problem: Requested field: pKd. Item: target 1 MT 5'PFS GUC 3'PFS ACC (mixed) RNA 1: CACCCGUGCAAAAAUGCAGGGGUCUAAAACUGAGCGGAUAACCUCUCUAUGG RNA 2: GGGAAUGGAUCCACAUCUACGAAUUCGUCCCAUAGAGAGGUUAUCCGCUCAACCAGAUCGGAAGAGCACACGU
Solution: 7.59

Problem: Requested field: pKd. Item: target 3 insC 3' of 8,insU 3' of 5 (mixed) RNA 1: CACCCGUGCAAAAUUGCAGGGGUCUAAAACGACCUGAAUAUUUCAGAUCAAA RNA 2: GGGAAUGGAUCCACAUCUACGAAUUCGUUUUUGAUCUGAAAUAUCUCAUGGUCUGCAGAUCGGAAGAGCACACGU
Solution: 7.10

Problem: Requested field: pKd. Item: target 1 MT 5'PFS AAG 3'PFS AGA (mixed) RNA 1: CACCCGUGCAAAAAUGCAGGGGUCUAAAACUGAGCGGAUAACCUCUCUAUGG RNA 2: GGGAAUGGAUCCACAUCUACGAAUUCAAGCCAUAGAGAGGUUAUCCGCUCAAGAAGAUCGGAAGAGCACACGU
Solution: 7.42

Problem: Requested field: pKd. Item: target 1 C2U,U19C (mixed) RNA 1: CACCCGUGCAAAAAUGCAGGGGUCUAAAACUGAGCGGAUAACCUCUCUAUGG RNA 2: GGGAAUGGAUCCACAUCUACGAAUUCGUACCACAGAGAGGUUAUCCGCUUACCGAGAUCGGAAGAGCACACGU
Solution: 7.67

Problem: Requested field: pKd. Item: target 1 insC 3' of 18,insA 3' of 7 (mixed) RNA 1: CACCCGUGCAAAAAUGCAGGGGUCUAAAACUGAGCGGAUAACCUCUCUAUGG RNA 2: GGGAAUGGAUCCACAUCUACGAAUUCGUACCAUACGAGAGGUUAUCACGCUCACCGAGAUCGGAAGAGCACACGU
Solution: 7.54
